Target: CDK9 (Homo sapiens)
Construct: host or cells: HEK293-CDK9-Hibit
Sequence (P50750 whole entry): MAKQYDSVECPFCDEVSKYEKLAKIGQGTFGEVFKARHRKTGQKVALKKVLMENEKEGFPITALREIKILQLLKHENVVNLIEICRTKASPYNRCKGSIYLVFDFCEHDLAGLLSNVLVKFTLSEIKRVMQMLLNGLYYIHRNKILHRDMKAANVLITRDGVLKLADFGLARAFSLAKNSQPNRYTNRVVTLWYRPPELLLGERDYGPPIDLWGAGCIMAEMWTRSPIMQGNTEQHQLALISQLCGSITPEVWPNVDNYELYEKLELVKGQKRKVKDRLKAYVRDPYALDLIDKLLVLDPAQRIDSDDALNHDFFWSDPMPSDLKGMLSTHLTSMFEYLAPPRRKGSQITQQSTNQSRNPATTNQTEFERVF
Assay: HiBit Assay Protocol for CDK9 (HIBIT protein quantification, degradation)
Type: cell-based
Settings: 6 h, HEK293-CDK9-Hibit cells, compound treatment for 6 hours; read-out: CDK9 HIBIT Protein Quantification Maximum
propertyName: Dmax (%)

Example cases with answers are listed next.
compound | target | unit | assayValue
CC1CCCC1N1C(=O)C2(CC2)c2cnc(NC3CCN(S(=O)(=O)N4CCCN(C(=O)CCCCCc5cccc6c5n(C)c(=O)n6C5CCC(=O)NC5=O)CC4)CC3)nc21 (stereo not shown) [Compound 43] | CDK9 (Homo sapiens) | % | 32
CC1CCCC1N1C(=O)C2(CC2)c2cnc(NC3CCN(S(=O)(=O)C4CCCN(C(=O)CCCCCc5ccc6c(c5)n(C)c(=O)n6C5CCC(=O)NC5=O)C4)CC3)nc21 (stereo not shown) [Compound 82] | CDK9 (Homo sapiens) | % | 11
Cn1nc(N2CCC(=O)NC2=O)c2ccc(N3CCN(Cc4cccc(S(=O)(=O)N5CCC(Nc6ncc7c(n6)N([C@@H]6CCC[C@@H](O)C6)C(=O)C76CC6)CC5)c4)CC3)cc21 [Compound 184] | CDK9 (Homo sapiens) | % | 22
Cn1nc(N2CCC(=O)NC2=O)c2ccc(C3CCN(Cc4cccc(S(=O)(=O)N5CCC(Nc6ncc7c(n6)N([C@@H]6CCC[C@@H](O)C6)C(=O)C76CC6)CC5)c4F)CC3)cc21 [Compound 172] | CDK9 (Homo sapiens) | % | 17
C[C@@H]1CN(c2ccc3c(N4CCC(=O)NC4=O)nn(C)c3c2)CCN1[C@@H](C)c1cccc(S(=O)(=O)N2CC[C@H](Nc3ncc4c(n3)N([C@@H]3CCC[C@@H](O)C3)C(=O)C43CC3)[C@H](F)C2)c1 [Compound 192] | CDK9 (Homo sapiens) | % | 16

1: CC1CCCC1N1C(=O)C2(CC2)c2cnc(NC3CCN(S(=O)(=O)N4CC5(CCCN(C6CCN(c7cccc8c7n(C)c(=O)n8C7CCC(=O)NC7=O)C6)C5)C4)CC3)nc21 (stereo not shown) [Compound 137]
2: Cn1c(=O)n(C2CCC(=O)NC2=O)c2ccc(N3CCN(Cc4cccc(S(=O)(=O)N5CCC(Nc6ncc7c(n6)N([C@@H]6CCC[C@@H](O)C6)C(=O)C76CC6)CC5)c4)CC3)cc21 (stereo partly shown) [Compound 179]
3: O=C1CCC(N2Cc3cc(N4CC5(CN(Cc6cccc(S(=O)(=O)N7CCC(Nc8ncc9c(n8)N([C@@H]8CCC[C@@H](O)C8)C(=O)C98CC8)CC7)c6)C5)C4)ccc3C2=O)C(=O)N1 (stereo partly shown) [Compound 120]
4: CC1CCCC1N1C(=O)C2(CC2)c2cnc(NC3CCN(S(=O)(=O)N4CC5(CCN(C(=O)CCc6cccc7c6n(C)c(=O)n7C6CCC(=O)NC6=O)CC5)C4)CC3)nc21 (stereo not shown) [Compound 20]
Inquiry: Order by Dmax, ascending. Hello, could you send the labels back in the order asked? Thank you.
Reply text: 1, 2, 3, 4

###

Biological target: CDK2 (Homo sapiens)
Construct: host or cells: HEK293-CDK2-Hibit
Test: HiBit Assay Protocol for CDK2 (HIBIT protein quantification, degradation)
Type: cell-based
Conditions: HEK293-CDK2-Hibit cells, compound treatment for 6 hours, ABS DC50
propertyName: DC50 (nM)

Some solved cases for reference:
compound | target | propertyName | assayValue
O=C1CCC(N2Cc3cc(N4CCN(CC5CCN(c6cccc(S(=O)(=O)N7CCC(Nc8ncc9c(n8)N([C@@H]8CCC[C@@H](O)C8)C(=O)C98CC8)CC7)c6)CC5)CC4)ccc3C2=O)C(=O)N1 (some centres unmarked) | CDK2 (Homo sapiens) | DC50 | 7
CC1CCCC1N1C(=O)C2(CC2)c2cnc(NC3CCN(S(=O)(=O)N4CCCN(C(=O)CCCCCc5cccc6c5n(C)c(=O)n6C5CCC(=O)NC5=O)CC4)CC3)nc21 (centres unmarked) | CDK2 (Homo sapiens) | DC50 | 16
O=C1CCC(N2Cc3cc(N4CCC(CN5CCN(c6cccc(S(=O)(=O)c7ccc(Nc8ncc9c(n8)N([C@@H]8CCC[C@@H](O)C8)C(=O)C98CC8)cc7)c6)CC5)CC4)ccc3C2=O)C(=O)N1 (some centres unmarked) | CDK2 (Homo sapiens) | DC50 | 6

P: Cc1cc(CN2CCC(c3ccc4c(N5CCC(=O)NC5=O)nn(C)c4c3)CC2)cc(S(=O)(=O)N2CCC(Nc3ncc4c(n3)N([C@@H]3CCC[C@@H](O)C3)C(=O)C43CC3)CC2)c1
Q: CC1CCCC1N1C(=O)C2(CC2)c2cnc(NC3CCN(S(=O)(=O)N4CC5(CCN(C(=O)CCCc6cccc7c6n(C)c(=O)n7C6CCC(=O)NC6=O)CC5)C4)CC3)nc21 (centres unmarked)
Inquiry: Of P and Q , which shows the smaller DC50 value? Refer to your chosen entry by its label in the reply.
Reply text: P
